- assayTarget: Large T antigen (Simian virus 40)
- Sequence (P03070 whole entry): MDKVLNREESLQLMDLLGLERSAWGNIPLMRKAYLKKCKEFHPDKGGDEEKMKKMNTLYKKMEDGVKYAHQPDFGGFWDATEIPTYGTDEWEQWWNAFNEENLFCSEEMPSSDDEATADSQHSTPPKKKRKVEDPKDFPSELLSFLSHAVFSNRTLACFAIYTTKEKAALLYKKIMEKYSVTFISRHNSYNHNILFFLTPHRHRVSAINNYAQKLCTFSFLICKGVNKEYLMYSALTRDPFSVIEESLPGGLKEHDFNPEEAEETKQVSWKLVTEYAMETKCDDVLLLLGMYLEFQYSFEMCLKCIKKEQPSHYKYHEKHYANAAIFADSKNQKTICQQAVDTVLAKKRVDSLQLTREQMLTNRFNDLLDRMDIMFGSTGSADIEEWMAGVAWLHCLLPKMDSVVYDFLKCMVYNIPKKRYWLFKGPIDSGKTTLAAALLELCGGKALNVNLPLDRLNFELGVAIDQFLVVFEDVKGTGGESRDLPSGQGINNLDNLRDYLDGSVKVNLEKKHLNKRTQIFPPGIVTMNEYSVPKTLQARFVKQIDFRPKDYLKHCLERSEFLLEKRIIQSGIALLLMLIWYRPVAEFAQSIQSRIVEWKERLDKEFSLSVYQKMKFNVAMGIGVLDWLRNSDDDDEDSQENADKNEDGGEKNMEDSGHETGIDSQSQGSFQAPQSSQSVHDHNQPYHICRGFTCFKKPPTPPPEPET
- Format: functional, Betapolyomavirus macacae
Activity calls are given as the source filed them.
Each item that follows carries a reported IC50.
measuredQuantity: IC50

INSERT INTO measurements (compound, testresult) VALUES
  ('O=C(Nc1ccc(O)cc1)/C(=C/c1ccco1)NC(=O)c1ccccc1', '11 µM (active)'),
  ('O=C(N/N=C/c1ccc(-c2ccc(S(=O)(=O)Nc3ncccn3)cc2)o1)c1cc2ccccc2cc1O', '52.8 µM (active)'),
  ('CC(=O)CC1OC(O)=C(Br)/C1=N/Cc1ccccc1 (stereo unspecified)', '41.6 µM (active)'),
  ('CCOC(=O)c1c(C)c(C(=O)Nc2ccc(N(C)C)cc2)c(C)n1CC', '15.1 µM (active)'),
  ('Nc1ccc2c(c1)Cc1ccccc1-2', '3.52 µM (active)'),
  ('CCOC(=O)c1c(N)ssc1=S', '95.5 µM (active)'),
  ('O=C1C(=Cc2ccc(Br)o2)C(=O)c2ccccc21', '93.7 µM (active)'),
  ('O=C(CCSc1ccc(Cl)cc1)N1CCN(c2ccc(O)cc2)CC1', '6.74 µM (active)'),
  ('COc1cccc(-n2c(=O)c3ccccc3n3c(S)nnc23)c1', '19.1 µM (active)'),
  ('Oc1ccc(/N=C/c2ccc(O)c(O)c2)cc1', '9.16 µM (active)'),
  ('Cc1cc(C)nc(SCc2cc(=O)c(OC(=O)c3ccc(S(=O)(=O)N4CCCC4)cc3)co2)n1', '37.3 µM (active)');

###

- assayTarget: Large T antigen (Simian virus 40);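 further: Confirmatory-stage PubChem screen for compounds that inhibit SV40 T antigen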
- Assay type: functional, Betapolyomavirus macacae
The source made the active and inactive calls.
Each item that follows carries a reported IC50.
measuredQuantity: IC50

INSERT INTO results (compound, testresult) VALUES
  ('Nc1ncc(N=Nc2cc(C(=O)O)ccc2Cl)s1', '67.1 µM (active)'),
  ('COC(C(=O)N/N=C(\C)CC(=O)Nc1ccc(N(C)C)cc1)c1ccccc1 (stereo unspecified)', '11.1 µM (active)'),
  ('CN(C)c1ccc(NC(=O)CN2CCN(c3ccc(F)cc3)CC2)cc1', '5.83 µM (active)'),
  ('CCN(CC)CCNC(=O)CCCCn1c(=S)[nH]c2c([nH]c3ccc(OC)cc32)c1=O', '8.17 µM (active)'),
  ('CCOC(=O)C[n+]1c(C)sc2ccc(OC)cc21', '22.1 µM (active)'),
  ('CCN1CCN(c2ccc(N)cc2C)CC1', '6.6 µM (active)');

###

Each item that follows carries a reported CC50.
- Tested on: Vero
- protocolText: cells
- Assay type: functional
- conditionSummary: Chlorocebus sabaeus
The source made the active and inactive calls.
measuredQuantity: CC50

INSERT INTO results (compound, measuredquantity, testresult) VALUES
  ('Clc1ccc(-c2cc(C3CCNCC3)[nH]n2)c(Cl)c1', 'CC50', '> 25 µM (active)'),
  ('CCCC/C=C1/CCC(CN(C)C)C1=O (centres undefined)', 'CC50', '> 25 µM (active)'),
  ('COc1ccc(OC)c(/C=C2\SC(=S)N(Cc3cccnc3)C2=O)c1', 'CC50', '14.8 µM (active)'),
  ('O=C1/C(=C/c2cccc(Br)c2)SC(=S)N1CCC(=O)N(CCO)c1ccccc1', 'CC50', '> 25 µM (active)');

###

- assayTarget: Nucleotide-binding oligomerization domain-containing protein 2 (Homo sapiens, UniProt Q9HC29)
- Sequence (Q9HC29 whole entry, the tested form may be a part): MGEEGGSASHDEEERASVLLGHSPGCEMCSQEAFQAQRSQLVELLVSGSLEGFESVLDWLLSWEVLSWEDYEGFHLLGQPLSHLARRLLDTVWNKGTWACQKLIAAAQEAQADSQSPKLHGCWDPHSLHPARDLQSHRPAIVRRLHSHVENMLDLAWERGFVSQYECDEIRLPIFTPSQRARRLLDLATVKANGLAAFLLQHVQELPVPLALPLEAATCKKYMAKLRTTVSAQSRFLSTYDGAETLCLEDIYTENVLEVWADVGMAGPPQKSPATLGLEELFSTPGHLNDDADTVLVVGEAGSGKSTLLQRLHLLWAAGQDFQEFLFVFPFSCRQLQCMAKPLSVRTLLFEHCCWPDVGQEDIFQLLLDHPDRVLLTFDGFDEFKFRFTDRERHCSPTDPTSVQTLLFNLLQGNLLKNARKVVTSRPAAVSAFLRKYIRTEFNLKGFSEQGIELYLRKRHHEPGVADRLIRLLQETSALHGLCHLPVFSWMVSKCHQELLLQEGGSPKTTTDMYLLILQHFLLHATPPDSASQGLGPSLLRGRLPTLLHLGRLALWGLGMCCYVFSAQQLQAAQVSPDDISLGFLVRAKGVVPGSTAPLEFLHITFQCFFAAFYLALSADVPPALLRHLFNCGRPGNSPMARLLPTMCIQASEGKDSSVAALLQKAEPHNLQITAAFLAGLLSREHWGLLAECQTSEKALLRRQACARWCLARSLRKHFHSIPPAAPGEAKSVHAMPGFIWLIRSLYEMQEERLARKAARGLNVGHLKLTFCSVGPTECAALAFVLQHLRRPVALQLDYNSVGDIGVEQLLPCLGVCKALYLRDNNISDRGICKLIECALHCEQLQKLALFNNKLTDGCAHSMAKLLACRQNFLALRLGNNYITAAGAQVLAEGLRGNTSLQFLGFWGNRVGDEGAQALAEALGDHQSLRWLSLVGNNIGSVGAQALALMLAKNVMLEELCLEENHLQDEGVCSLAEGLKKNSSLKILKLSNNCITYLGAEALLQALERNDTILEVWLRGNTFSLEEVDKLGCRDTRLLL
- protocolText: inhibition of NOD2-driven NF-kB reporter – cell-based, luminescence, uHTS, HEK293 (AID 1566)
- Assay type: functional
Active and inactive are the calls of the source.
Outcome codes: active, inactive

INSERT INTO measurements (cpdsmiles, cat) VALUES
  ('Cc1cc(-c2ccc(C)c(S(=O)(=O)N3CCN(c4ccc([N+](=O)[O-])cc4)CC3)c2)on1', 'inactive'),
  ('Cc1ccc(-c2c(C#N)c(N)n3c(nc4ccccc43)c2C#N)cc1', 'inactive'),
  ('O=C(N/N=C/c1ccc([N+](=O)[O-])o1)c1cc2ccccc2o1', 'active'),
  ('O=S(=O)(Nc1cccc2cccnc12)c1ccccc1', 'inactive'),
  ('Cc1nonc1C(=O)N/N=C/c1ccc([N+](=O)[O-])o1', 'active');

###

- assayTarget: Genome polyprotein (dengue virus type 2)
- protocolText: flavivirus cap methylation enzyme inhibition – biochemical, confirmation dose response, primary screen (AID 588689)
- Format: functional
The source made the active and inactive calls.
measuredQuantity: IC50

INSERT INTO results (compound, testresult) VALUES
  ('COc1ccc(C2CC(c3ccccc3)=NN2c2ccc(Cl)c(C(=O)O)c2)cc1 (stereo not given)', '39.9 µM (active)'),
  ('Oc1ccc(/C=N/N2CCCCC2)c(O)c1O', '> 100 µM (active)'),
  ('Cc1oc2cc([N+](=O)[O-])c(O)c([N+](=O)[O-])c2c1C(=O)c1ccc(Cl)cc1', '61.9 µM (active)'),
  ('O=C(N/N=C/c1ccc(-c2ccc(S(=O)(=O)Nc3ncccn3)cc2)o1)c1cc2ccccc2cc1O', '76.5 µM (active)'),
  ('O=C(O)c1cccc(-n2cccc2/C=C/[N+](=O)[O-])c1', '53.6 µM (active)');

###

- assayTarget: Paired box protein Pax-8 (Homo sapiens, UniProt Q06710)
- Sequence (Q06710 whole entry): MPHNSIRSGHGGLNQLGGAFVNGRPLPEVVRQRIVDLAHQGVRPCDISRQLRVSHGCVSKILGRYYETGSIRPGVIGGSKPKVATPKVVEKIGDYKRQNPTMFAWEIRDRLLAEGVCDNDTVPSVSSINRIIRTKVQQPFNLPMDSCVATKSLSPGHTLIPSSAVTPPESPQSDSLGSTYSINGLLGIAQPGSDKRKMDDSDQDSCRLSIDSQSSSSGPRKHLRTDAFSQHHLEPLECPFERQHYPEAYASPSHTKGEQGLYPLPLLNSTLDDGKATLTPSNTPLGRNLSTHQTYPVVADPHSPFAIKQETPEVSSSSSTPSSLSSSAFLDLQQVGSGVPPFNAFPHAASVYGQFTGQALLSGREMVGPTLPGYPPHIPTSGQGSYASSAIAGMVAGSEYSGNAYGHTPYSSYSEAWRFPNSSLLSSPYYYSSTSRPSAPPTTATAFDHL
- protocolText: PAX8 transcriptional activity inhibition in RMG-I – RMG-I cells, luciferase, cherry-pick, dose response (AID 687027);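 further: luciferase reporter driven by Pax8 target thyroperoxidase promoter measured by SteadyGlo luminescence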
- Type: functional, cell-based
Calls of active or inactive are those of the source.
measuredQuantity: AC50

INSERT INTO results (cpdsmiles, testresult) VALUES
  ('CCOc1ccccc1NC(=O)c1nc(S(=O)(=O)Cc2ccccc2)ncc1Cl', '7.1 µM (active)'),
  ('Cc1cccc2sc(N(CCCN(C)C)C(=O)CCS(=O)(=O)c3ccccc3)nc12', '6.18 µM (active)'),
  ('Nc1nnnn1/N=C/C(Br)=C/c1ccccc1', '1.36 µM (active)');

###

Each item that follows carries a reported AC50.
- assayTarget: UniProt P43351
- Sequence (P43351 whole entry): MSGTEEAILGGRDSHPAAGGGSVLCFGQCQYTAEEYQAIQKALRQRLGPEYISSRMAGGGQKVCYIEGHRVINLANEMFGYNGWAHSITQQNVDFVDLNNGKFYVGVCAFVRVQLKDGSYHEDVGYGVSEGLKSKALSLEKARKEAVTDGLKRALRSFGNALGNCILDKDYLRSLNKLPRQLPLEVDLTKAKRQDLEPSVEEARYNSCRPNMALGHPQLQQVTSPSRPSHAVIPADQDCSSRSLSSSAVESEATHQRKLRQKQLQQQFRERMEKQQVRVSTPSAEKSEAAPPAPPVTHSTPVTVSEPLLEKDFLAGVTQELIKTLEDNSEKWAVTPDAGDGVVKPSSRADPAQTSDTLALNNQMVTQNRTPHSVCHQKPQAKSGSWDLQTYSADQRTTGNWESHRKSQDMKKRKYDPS
- Format: functional, biochemical
The source made the active and inactive calls.
measuredQuantity: AC50

INSERT INTO results (cpdsmiles, testresult) VALUES
  ('CCCCCCCCCCCCCCCC[n+]1ccccc1', '3790 nM (active)'),
  ('CCCCCCCCCCCCCCCC[n+]1cccc(C(=O)N(CC)CC)c1', '5290 nM (active)'),
  ('COc1ccc(OC)c2nc3c(C(=O)NCCN(C)C)cccc3nc12', '590 nM (active)'),
  ('COc1ccc(C(=O)NCCN(C)C)c2nc3ccccc3cc12', '1040 nM (active)');

###

- protocolText: luciferase reporter signal suppression in cells – H4 neuroglioma cells, luminescence, dose response (AID 1990)
- Format: functional, cell-based
Active and inactive are the calls of the source.
measuredQuantity: EC50

INSERT INTO assay_data (cpdsmiles, testresult) VALUES
  ('CCO[C@@H]1OC(C(=O)NCc2nc3ccccc3[nH]2)=C[C@H](C(C)(C)C)[C@H]1CCCO', '> 60 µM (not active)'),
  ('Nc1c(C(=O)NCc2ccc3c(c2)OCO3)nnn1CC(=O)Nc1ccc(Br)cc1', '> 120 µM (not active)'),
  ('Cc1nn(C(C)(C)C)c(C)c1/C=N/OC(=O)Nc1ccc(Cl)cc1', '< 0.1 µM (active)'),
  ('Cc1nc2c(c(N3CCOCC3)n1)OCC(=O)N2', '42.6 µM (active)'),
  ('CCOc1ccc(-c2nc(N)ncc2Oc2cccc(OC)c2)c(O)c1', '> 120 µM (not active)'),
  ('Brc1ccc(C2=Nn3c(nnc3-c3[nH]nc4c3CCC4)SC2)cc1', '11.9 µM (active)'),
  ('C=C(C)CN1CC[C@]23c4c5ccc(O)c4O[C@H]2c2[nH]c4ccccc4c2C[C@@]3(O)C1C5', '13.7 µM (active)'),
  ('CCOC(=O)c1c(C)n[nH]c1NCc1ccccc1', '26 µM (active)');

Where these numbers come from: ChEMBL document CHEMBL1201862
